Tested on: MOLT-4 cells
EXPERIMENT: MOLT-4 cell viability using MTT assay
Assay type: cell-based
MEASUREMENT CONDITIONS: Homo sapiens, MOLT-4, 48 h, 48 h exposure

- COMPOUND: "Cc1c(Nc2nc3ccccc3s2)nnc2c1CCCN2c1nc(C(=O)O)c(CCCOc2ccc(C#CCN(C)C)cc2C(F)(F)F)s1"
  IC50: "8.16 nM"
- COMPOUND: "Cc1c(Nc2nc3ccccc3s2)nnc2c1CCCN2c1nc(C(=O)O)c(CCCOc2ccc(C#CCN3C[C@@H](C)N[C@@H](C)C3)cc2F)s1"
  IC50: "0.57 nM"
- COMPOUND: "Cc1c(Nc2nc3ccccc3s2)nnc2c1CCCN2c1nc(C(=O)O)c(CCCOc2ccc(C#CCN3CCC(F)(F)CC3)cc2F)s1"
  IC50: "2.13 nM"
- COMPOUND: "Cc1c(Nc2nc3ccccc3s2)nnc2c1CCN2c1cccc(C(=O)O)n1"
  IC50: "162 nM"
- COMPOUND: "Cc1c(Nc2nc3ccccc3s2)nnc2c1CCCN2c1ccc(-c2cnn(CC34CC5(C)CC(C)(C3)CC(OCCN3CCOCC3)(C5)C4)c2C)c(C(=O)O)n1"
  IC50: "0.0513 nM"
- COMPOUND: "CNCCc1ccc(OCCCc2sc(N3CCCc4c3nnc(Nc3nc5ccccc5s3)c4C)nc2C(=O)O)c(F)c1"
  IC50: "30.5 nM"
- COMPOUND: "Cc1c(Nc2nc3ccccc3s2)nnc2c1CCCN2c1nc(C(=O)O)c(CCCOc2ccc(CCCN3CCC3)cc2F)s1"
  IC50: "7.4 nM"
- COMPOUND: "CNCCN[C@@H]1Cc2c(nnc(Nc3nc4ccccc4s3)c2C)N(c2nc(C(=O)O)c(CCCOc3ccc(CCCN(C)C)cc3F)s2)C1"
  IC50: "37.1 nM"
